B1: library; numbered along this chain (parent)
chain: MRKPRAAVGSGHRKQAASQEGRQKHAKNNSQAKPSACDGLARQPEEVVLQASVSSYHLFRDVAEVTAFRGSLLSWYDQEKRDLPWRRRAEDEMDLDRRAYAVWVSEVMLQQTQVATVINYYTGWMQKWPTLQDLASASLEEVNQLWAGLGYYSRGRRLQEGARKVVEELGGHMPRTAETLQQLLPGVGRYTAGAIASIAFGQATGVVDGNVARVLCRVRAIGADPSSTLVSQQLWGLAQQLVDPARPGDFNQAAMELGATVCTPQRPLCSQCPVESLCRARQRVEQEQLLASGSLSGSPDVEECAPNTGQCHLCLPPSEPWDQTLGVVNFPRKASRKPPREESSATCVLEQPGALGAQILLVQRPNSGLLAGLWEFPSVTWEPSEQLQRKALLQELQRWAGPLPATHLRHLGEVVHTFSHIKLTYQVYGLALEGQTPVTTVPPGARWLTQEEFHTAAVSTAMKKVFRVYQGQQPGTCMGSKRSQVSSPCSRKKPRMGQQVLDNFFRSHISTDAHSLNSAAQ

Variants of: B1
Test: 8OG:A repair function score (normalized; synonymous = 0, nonsense = -1) (normalized log-likelihood score); higher = more repair activity (WT-like);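 note: cells sorted at 72 h after reporter transfection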
Settings: with 8OG:A DNA repair reporter (GFP) in HEK-293 MUTYH KO cells
Would you please tag the item yes when its 8OG:A repair function score is -0.02 or above, and no when it is below?

Worked examples follow.
mutation_code: Y190D
cat: no

mutation_code: P299V
cat: yes

mutation_code: T263S
cat: no

[in] Form field: 8OG:A repair function score at least -0.02? Entry: E46S
[out] no

[in] Given P299E , state whether its 8OG:A repair function score is at least -0.02.
[out] no

[in] Is the recorded value of 8OG:A repair function score equal to or greater than -0.02 for this variant? M255C
[out] no

Origin of values: the supplement of paper PMC11908140
